- Target entity: Activated CDC42 kinase 1 (Homo sapiens);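 also: values are mean inhibition of TNK2, from the GSK PKIS screening dataset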
- Details: at 0.1 µM
Quantity measured: inhibition (%)

Compound | Reading unit | Observed measurement
CCS(=O)(=O)c1ccc(OC)c(Nc2ncc(-c3cccc(C(C)=O)c3)o2)c1 | % | 1.65
Cn1c(-c2nonc2N)nc2cnccc21 | % | 0.75
COc1cccc(-n2ncc3c(N/N=C/c4ccc(C(=O)NCCN(C)C)cc4)ncnc32)c1 | % | 2.34
COC(=O)Nc1nc2ccc(Oc3ccc(NC(=O)Nc4cc(C(F)(F)F)ccc4F)cc3)cc2s1 | % | 0.46
Cc1cc(O)cc(C)c1/C=C/c1cncc(C(N)=O)c1 | % | 1.58
CN(C)CCNC(=O)Nc1ccc(N(C)c2ccnc(Nc3ccc(CS(C)(=O)=O)cc3)n2)cc1 | % | 1.49
CC(C)c1ccc(-c2cc(-c3c[nH]nc3-c3ccccn3)ccn2)cc1 | % | 0.23
NS(=O)(=O)c1cccc(N/C=C2\C(=O)Nc3ccccc32)c1 | % | 0.36
COc1c(C(N)=O)cc(-c2ccc(Cl)cc2)cc1-c1ccc(S(N)(=O)=O)cc1 | % | 1.22
CS(=O)(=O)CCNCc1ccc(-c2ccc3ncnc(Nc4ccc(OCc5ccccc5)cc4)c3c2)o1 | % | 1.73
CS(=O)(=O)CCNCc1ccc(-c2ccc3ncnc(Nc4ccc(OCc5cccc(C(F)(F)F)c5)cc4)c3c2)o1 | % | 0.49
FC(F)(F)CNc1nccc(-c2cnn3ncccc23)n1 | % | 0.71
CNC(=O)c1cncc(/C=C/c2ccccc2C)c1 | % | 1.54
COc1ccc(Nc2ncc(-c3ccccc3)o2)cc1OC | % | -0.28
CC1=C(C(=O)Nc2ccc3[nH]nc(C)c3c2)C(c2ccc(C(F)(F)F)cc2)CC(=O)N1 (stereo not given) | % | 3.49
CNC(=O)c1ncccc1Nc1nc(Nc2cc3c(cc2OC)CCCN3C(=O)CN(C)C)nc2[nH]ccc12 | % | 2.4
Fc1ccc(Nc2nccc(-c3c(-c4ccc(C(F)(F)F)cc4)nn4ncccc34)n2)cc1F | % | 1.2
CCOc1ccc2c(-c3ccnc(Nc4cc(OC)cc(C(F)(F)F)c4)n3)cnn2n1 | % | 0.16
CC1(C)CC(n2cnc(-c3ccc(F)cc3)c2-c2ccnc(N)n2)CC(C)(C)N1 | % | -0.24
O=C(Nc1n[nH]c2nnc(-c3cccnc3)cc12)C1CC1 | % | 0.32
Fc1cccc(COc2ccc(Nc3ncncc3C#Cc3ccccc3)cc2Cl)c1 | % | 1.84
COc1ccccc1-c1cc(/C=C2\C(=O)Nc3ncc(Br)cc32)cc(Br)c1O | % | 1.04
N#Cc1ccc2c(-c3ccnc(NC4CC4)n3)c(-c3ccc(F)cc3)nn2c1 | % | 0.77
CC1=C(C(=O)Nc2ccc3[nH]ncc3c2)C(c2ccc(F)cc2)N=C(c2ccc(C(F)(F)F)nc2)N1 (stereo not given) | % | 1.17
O=C(O[C@H]1CN[C@H](C#Cc2cc3ncnc(Nc4ccc5c(ccn5Cc5cc(F)ccc5F)c4)c3s2)C1)N1CCOCC1 | % | 0.66
NC(=O)c1ccc2c(-c3ccnc(NCCCO)n3)c(-c3ccc(F)cc3)nn2c1 | % | 0.88
CCN1CCC(C(=O)Nc2n[nH]c3nnc(-c4cccc(F)c4F)cc23)CC1 | % | -0.13
O=C(O[C@H]1CN[C@H](C#Cc2cc3ncnc(Nc4ccc5c(cnn5Cc5ccccc5)c4)c3s2)C1)N1CCOCC1 | % | -0.92
Cc1c2ccc(N(C)c3ccnc(Nc4cccc(S(N)(=O)=O)c4)n3)cc2nn1C | % | 1.67
Cc1ccc(-c2cc3c(NC(=O)C4CC4)ncnc3o2)cc1 | % | 1.58
c1cnn2ncc(-c3ccnc(NCCCN4CCOCC4)n3)c2c1 | % | 0.23
OCCCNc1nccc(-c2c(-c3ccc(F)cc3)nn3cc(C(F)(F)F)ccc23)n1 | % | 0.22
CN(c1ccc(NC(=O)NCCN2CCOCC2)cc1)c1ccnc(Nc2ccc(CS(C)(=O)=O)cc2)n1 | % | 1.35
COc1cc2c(cc1Nc1nc(Nc3cccc(F)c3C(N)=O)c3cc[nH]c3n1)N(C(=O)CN1CCN(C(C)C)CC1)CC2 | % | 1.09
Cc1nnc(-c2cccc(-c3ccc(C(=O)NCC4CC4)cc3)c2)o1 | % | 1.67
CN1CCC(n2cnc(-c3ccc(F)cc3)c2-c2ccnc(NCCO)n2)CC1 | % | 1.7
NS(=O)(=O)c1ccc(N/N=C2\C(=O)Nc3ccc(C(=O)NCc4ccncc4)cc32)cc1 | % | 0.57
COC(=O)Nc1nc2cc(Oc3ccc(NC(=O)Nc4ccccc4)cc3)ccc2[nH]1 | % | 0.69
CS(=O)(=O)CCNCc1ccoc1-c1ccc2ncnc(Nc3ccc(OCc4ccccc4)cc3)c2c1 | % | 0.06
COc1ccc2ncn(-c3cc(O[C@H](C)c4ccccc4C(F)(F)F)c(C(N)=O)s3)c2c1 | % | 0.19
